Would you kindly list pEC50 for each of these molecules?
# System: Vaccinia virus
# TEST_DESCRIPTION: Antiviral activity against Vaccinia virus Elstree-Lister ATCC VR-1549 infected in african green monkey Vero-76 cells assessed as reduction in viral plaque after 3 days by crystal violet staining
# Assay type: functional, organism-based
# EXPERIMENTAL_PARAMETERS: Orthopoxvirus vaccinia, Elstree-Lister ATCC VR-1549, Vero 76, 72 h
pEC50: −log10 of the molar value.

Query: // pEC50 lookup, key: COc1ccc(-c2nc3cc(C(C)=O)ccc3[nH]2)c(OC)c1
Reply: < 4.00

Query: // pEC50 lookup, key: C/C(=N\NC(N)=O)c1ccc2c(c1)nc(-c1ccc(C(F)(F)F)cc1)n2C1CCCCC1
Reply: < 4.00

Query: // pEC50 lookup, key: C/C(=N\NC(N)=O)c1ccc2[nH]c(-c3ccc(Cl)cc3)nc2c1
Reply: < 4.00

Query: // pEC50 lookup, key: COc1ccc(-c2nc3cc(C(C)=O)ccc3[nH]2)cc1
Reply: < 4.00

Query: // pEC50 lookup, key: C/C(=N\NC(N)=S)c1ccc2c(c1)nc(-c1ccccc1)n2C1CCCCC1
Reply: < 4.70

Query: // pEC50 lookup, key: COc1ccc(-c2nc3cc(C(C)O)ccc3[nH]2)c(OC)c1 (stereo not drawn)
Reply: < 4.00

Query: // pEC50 lookup, key: C/C(=N\NC(N)=S)c1ccc2[nH]c(-c3ccc(Cl)cc3)nc2c1
Reply: < 4.00

Query: // pEC50 lookup, key: C/C(=N\NC(N)=S)c1ccc2c(c1)nc(-c1ccccn1)n2C1CCCCC1
Reply: < 4.70

Query: // pEC50 lookup, key: C/C(=N\NC(N)=S)c1ccc2[nH]c(-c3ccoc3)nc2c1
Reply: < 4.00

Query: // pEC50 lookup, key: C/C(=N\NC(N)=S)c1ccc2c(c1)nc(-c1ccc(C(F)(F)F)cc1)n2C1CCCCC1
Reply: < 4.00

Query: // pEC50 lookup, key: CC(=O)c1ccc2[nH]c(C3CCCCC3)nc2c1
Reply: < 4.00

Query: // pEC50 lookup, key: O=[N+]([O-])c1ccc(-c2nc3cc(Cl)c(Cl)cc3[nH]2)cc1
Reply: 7.00

Query: // pEC50 lookup, key: CC(=O)c1ccc2[nH]c(-c3ccc(C(F)(F)F)cc3)nc2c1
Reply: < 4.00

Query: // pEC50 lookup, key: COc1ccc(-c2nc3cc(/C(C)=N/O)ccc3[nH]2)cc1
Reply: < 4.00

Query: // pEC50 lookup, key: COc1ccc(-c2nc3cc(C(C)=O)ccc3n2C2CCCCC2)c(OC)c1
Reply: < 4.15

Query: // pEC50 lookup, key: CC(=O)c1ccc2c(c1)nc(-c1ccoc1)n2C1CCCCC1
Reply: < 4.10

Query: // pEC50 lookup, key: COc1ccc(-c2nc3cc(/C(C)=N/NC(N)=O)ccc3n2C2CCCCC2)c(OC)c1
Reply: < 4.70

Query: // pEC50 lookup, key: C/C(=N\O)c1ccc2[nH]c(-c3ccccc3)nc2c1
Reply: < 4.00

Query: // pEC50 lookup, key: COc1ccc(-c2nc3cc(C(C)O)ccc3[nH]2)c(OC)c1OC (stereo not drawn)
Reply: < 4.00

Query: // pEC50 lookup, key: CC(=O)c1ccc2[nH]c(-c3ccccc3)nc2c1
Reply: < 4.00

Query: // pEC50 lookup, key: COc1c(C)c2c(c(O)c1C/C=C(\C)CCC(=O)O)C(=O)OC2
Reply: 5.82

Query: // pEC50 lookup, key: COc1ccc(-c2nc3cc(C(C)O)ccc3[nH]2)cc1 (stereo not drawn)
Reply: < 4.00

Query: // pEC50 lookup, key: C/C(=N\NC(N)=S)c1ccc2c(c1)nc(-c1ccc(Cl)cc1)n2C1CCCCC1
Reply: < 4.00

Data origin, for the record: ChEMBL document CHEMBL2034874
